- tested_on: PI3Kalpha (Mus musculus, UniProt P42337)
- Sequence (P42337 whole entry, canonical isoform): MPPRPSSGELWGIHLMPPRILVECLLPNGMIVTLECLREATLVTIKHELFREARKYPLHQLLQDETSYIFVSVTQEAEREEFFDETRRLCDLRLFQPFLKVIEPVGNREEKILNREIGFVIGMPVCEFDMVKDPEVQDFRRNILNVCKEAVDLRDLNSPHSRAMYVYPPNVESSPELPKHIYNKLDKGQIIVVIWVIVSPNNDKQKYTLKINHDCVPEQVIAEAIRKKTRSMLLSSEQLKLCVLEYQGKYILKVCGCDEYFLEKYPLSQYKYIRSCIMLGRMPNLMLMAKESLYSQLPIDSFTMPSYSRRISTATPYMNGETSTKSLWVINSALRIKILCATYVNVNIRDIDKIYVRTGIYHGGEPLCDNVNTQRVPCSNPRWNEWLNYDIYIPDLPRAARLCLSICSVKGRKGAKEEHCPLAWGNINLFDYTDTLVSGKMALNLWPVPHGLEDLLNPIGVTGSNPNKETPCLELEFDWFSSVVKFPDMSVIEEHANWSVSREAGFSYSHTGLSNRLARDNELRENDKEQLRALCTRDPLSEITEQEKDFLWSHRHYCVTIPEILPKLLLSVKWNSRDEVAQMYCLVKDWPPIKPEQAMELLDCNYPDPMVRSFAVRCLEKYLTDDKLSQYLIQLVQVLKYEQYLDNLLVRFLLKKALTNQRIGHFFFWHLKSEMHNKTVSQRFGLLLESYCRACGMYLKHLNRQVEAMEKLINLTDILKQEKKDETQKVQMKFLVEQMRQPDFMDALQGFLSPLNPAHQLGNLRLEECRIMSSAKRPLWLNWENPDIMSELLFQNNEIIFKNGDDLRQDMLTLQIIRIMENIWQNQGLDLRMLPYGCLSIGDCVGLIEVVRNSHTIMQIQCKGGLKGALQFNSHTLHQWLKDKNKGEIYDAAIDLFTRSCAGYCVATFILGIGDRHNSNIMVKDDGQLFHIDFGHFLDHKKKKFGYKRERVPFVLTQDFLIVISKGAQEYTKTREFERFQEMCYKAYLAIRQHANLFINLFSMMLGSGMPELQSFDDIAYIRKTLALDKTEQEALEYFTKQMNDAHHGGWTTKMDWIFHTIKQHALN
- Sequence (P26450 whole entry partner, canonical isoform): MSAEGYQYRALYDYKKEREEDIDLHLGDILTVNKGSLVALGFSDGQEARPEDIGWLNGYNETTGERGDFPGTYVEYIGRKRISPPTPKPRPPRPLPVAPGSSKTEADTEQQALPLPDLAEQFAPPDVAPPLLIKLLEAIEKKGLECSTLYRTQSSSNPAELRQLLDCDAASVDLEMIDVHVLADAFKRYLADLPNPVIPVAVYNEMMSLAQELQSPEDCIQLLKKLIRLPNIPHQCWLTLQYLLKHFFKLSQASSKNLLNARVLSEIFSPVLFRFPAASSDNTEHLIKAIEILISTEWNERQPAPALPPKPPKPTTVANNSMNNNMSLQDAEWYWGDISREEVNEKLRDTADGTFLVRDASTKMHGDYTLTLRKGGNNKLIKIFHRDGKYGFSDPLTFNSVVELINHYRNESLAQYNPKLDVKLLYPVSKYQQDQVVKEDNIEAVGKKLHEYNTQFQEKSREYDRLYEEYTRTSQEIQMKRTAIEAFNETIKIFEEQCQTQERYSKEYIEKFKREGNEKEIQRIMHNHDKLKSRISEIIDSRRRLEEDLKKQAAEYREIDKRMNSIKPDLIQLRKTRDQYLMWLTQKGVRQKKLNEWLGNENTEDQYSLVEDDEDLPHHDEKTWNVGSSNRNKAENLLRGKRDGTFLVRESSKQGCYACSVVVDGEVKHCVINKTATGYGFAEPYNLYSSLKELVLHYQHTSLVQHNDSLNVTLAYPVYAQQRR
- assay_details: Isoform specific cell-based assay: PDGF induced pAKT in fibroblast cell line (Swiss-3T3)
- conditions: n = 12
reported_endpoint: EC50

Q) Suppose we examine the compound CC[C@H](Nc1ncnc2[nH]cnc12)c1nc2cccc(F)c2c(=O)n1-c1ccccc1 [Compound A] ; what EC50 value has been reported?
A) > 20 µM

* * *

- tested_on: PI3Kγ (Mus musculus, UniProt Q9JHG7)
- Construct: endogenous in cells
- Sequence (Q9JHG7 whole entry): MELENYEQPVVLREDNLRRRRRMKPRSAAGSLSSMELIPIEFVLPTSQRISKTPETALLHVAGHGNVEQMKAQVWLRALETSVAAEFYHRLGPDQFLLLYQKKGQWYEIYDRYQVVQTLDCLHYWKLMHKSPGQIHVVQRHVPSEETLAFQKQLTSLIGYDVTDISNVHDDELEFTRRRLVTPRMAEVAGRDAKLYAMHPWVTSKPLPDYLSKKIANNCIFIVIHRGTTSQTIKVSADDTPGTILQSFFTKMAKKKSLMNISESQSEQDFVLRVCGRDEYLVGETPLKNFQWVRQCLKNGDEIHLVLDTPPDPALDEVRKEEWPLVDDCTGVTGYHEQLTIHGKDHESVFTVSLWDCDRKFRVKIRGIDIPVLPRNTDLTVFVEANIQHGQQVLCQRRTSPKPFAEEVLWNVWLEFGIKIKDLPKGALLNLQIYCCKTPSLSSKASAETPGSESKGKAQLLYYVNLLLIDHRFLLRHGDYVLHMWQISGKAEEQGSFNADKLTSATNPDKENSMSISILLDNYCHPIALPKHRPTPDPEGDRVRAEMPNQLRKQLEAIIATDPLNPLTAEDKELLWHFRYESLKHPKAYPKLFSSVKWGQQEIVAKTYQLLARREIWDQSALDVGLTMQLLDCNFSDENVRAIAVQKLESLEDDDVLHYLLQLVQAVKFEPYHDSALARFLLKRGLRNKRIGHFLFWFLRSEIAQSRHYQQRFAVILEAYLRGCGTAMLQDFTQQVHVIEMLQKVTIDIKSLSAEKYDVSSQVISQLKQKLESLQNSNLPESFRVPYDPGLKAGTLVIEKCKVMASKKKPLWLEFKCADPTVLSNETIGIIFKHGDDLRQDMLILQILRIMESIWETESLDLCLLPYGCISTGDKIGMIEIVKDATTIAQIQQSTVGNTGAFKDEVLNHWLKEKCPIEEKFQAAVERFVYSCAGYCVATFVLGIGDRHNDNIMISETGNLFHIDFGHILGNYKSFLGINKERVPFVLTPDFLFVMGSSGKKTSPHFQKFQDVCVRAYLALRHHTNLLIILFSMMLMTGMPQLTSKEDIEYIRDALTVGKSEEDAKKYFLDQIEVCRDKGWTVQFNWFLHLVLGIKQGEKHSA
- Sequence (Q5SW28 whole entry partner): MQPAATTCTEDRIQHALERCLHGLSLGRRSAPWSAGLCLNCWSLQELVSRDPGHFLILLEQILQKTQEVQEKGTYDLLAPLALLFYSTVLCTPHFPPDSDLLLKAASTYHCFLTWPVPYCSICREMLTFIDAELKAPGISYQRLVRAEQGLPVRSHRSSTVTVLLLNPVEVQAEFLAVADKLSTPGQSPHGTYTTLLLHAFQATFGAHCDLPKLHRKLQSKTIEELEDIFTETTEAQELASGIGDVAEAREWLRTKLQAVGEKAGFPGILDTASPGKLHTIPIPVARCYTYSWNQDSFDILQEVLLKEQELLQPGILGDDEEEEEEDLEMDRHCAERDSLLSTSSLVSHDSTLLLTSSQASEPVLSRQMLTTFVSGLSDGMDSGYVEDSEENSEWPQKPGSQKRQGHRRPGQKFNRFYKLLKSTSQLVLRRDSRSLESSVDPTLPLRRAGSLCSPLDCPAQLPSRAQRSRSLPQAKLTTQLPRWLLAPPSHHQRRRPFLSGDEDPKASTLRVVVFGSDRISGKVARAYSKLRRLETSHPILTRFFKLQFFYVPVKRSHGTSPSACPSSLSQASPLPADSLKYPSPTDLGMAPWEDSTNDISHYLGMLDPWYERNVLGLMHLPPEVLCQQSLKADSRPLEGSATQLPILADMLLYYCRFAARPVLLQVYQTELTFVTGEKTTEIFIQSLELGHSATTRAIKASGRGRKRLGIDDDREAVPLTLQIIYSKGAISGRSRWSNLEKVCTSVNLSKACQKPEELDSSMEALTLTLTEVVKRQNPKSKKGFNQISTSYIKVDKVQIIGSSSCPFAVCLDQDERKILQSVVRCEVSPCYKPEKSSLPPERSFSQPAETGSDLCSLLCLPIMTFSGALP
- assay_details: Isoform specific cell-based assay: C5a induced pAKT in monocyte cell line (RAW-264)
- conditions: n = 11
reported_endpoint: pEC50
Give bare numbers, as −log10 of the molar value.

Q) Suppose we examine the molecule CC[C@H](Nc1ncnc2[nH]cnc12)c1nc2cccc(F)c2c(=O)n1-c1ccccc1 ; what pEC50 value has been reported?
A) 5.41
